Tested on: MOLT-4 leukemia
protocolText: NCI-60 one-dose screen, 48 h
conditionDetails: 10 µM unless noted
This is part of a sample that, as a whole, favours compounds with a hit. Of some 83,000 tested, about 20% had one in any assay. Calls of active or inactive are those of the source. The calls were made as follows: active = growth percent below 10; inactive = the rest.
# valid calls are active, inactive; nothing else

>>> assignedcategory("CCOc1cc2ncc(C#N)c(Nc3ccc(F)c(Cl)c3)c2cc1NC(=O)CC1CCSS1 (centres undefined)")
"active"
>>> assignedcategory("OCCN1CCN(c2nc(Nc3ccc(-c4nc5ccccc5[nH]4)cc3)c3cn[nH]c3n2)CC1")
"active"
>>> assignedcategory("COc1cc(CNc2oc(-c3ccccc3)c(-c3ccccc3)c2C#N)cc(CN2CCN(C)CC2)c1O")
"active"
>>> assignedcategory("C=CC(=O)Nc1cccc(-c2nc(SC)nc(Nc3ccccc3OC)c2C#N)c1")
"inactive"
>>> assignedcategory("COc1ccc(/C=C/c2nc(-c3n[nH]c(=O)n3-c3ccccc3)c3ccccc3n2)cc1")
"inactive"

Recorded call for NC(=O)c1cc(Cl)ccc1NC(=O)/C=C/c1ccccc1 ?
inactive

Recorded call for COc1cccc(C2=NN3C(C2)c2cc(Br)cc(OC)c2OC32CCN(Cc3ccccc3)CC2)c1 (centres undefined) ?
inactive
